# Target Entity: CK1ϵ (Homo sapiens, UniProt P49674)
# Sequence (P49674 whole entry): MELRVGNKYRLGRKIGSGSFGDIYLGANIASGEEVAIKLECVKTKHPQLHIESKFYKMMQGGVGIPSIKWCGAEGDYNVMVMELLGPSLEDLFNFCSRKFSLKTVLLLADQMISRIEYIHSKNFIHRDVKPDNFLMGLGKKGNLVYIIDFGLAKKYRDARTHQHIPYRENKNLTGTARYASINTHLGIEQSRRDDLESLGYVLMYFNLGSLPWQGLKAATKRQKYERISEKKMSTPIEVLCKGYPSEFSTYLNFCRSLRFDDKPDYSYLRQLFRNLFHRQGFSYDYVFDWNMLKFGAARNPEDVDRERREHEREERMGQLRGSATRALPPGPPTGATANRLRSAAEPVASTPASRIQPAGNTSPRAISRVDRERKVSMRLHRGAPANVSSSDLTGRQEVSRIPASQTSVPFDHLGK
Recorded Metric: pIC50
The meaning of pIC50 here: minus log10 of the concentration in molar units.

Example entries and their recorded answers appear below.
>>> print(df.to_string())
                        structure_as_smiles  recorded_metric  observed_measurement
0  Cn1cnc(S(=O)(=O)N2CCn3nc(-c4ccc(F)cc4)c(-c4ccc5nc(NC(=O)c6ccnc(F)c6)cn5n4)c3C2)c1            pIC50                  8.34
1  O=C(Nc1cn2nc(-c3c(-c4ccc(F)cc4)nn4c3CCC4)ccc2n1)c1cc(F)nc(F)c1            pIC50                  8.28

Identify measured pIC50 obtained with CK1ϵ (Homo sapiens, UniProt P49674) for CC(=O)N1CCn2nc(-c3ccc(F)cc3)c(-c3ccc4nc(NC(=O)c5ccnc(F)c5)cn4n3)c2C1 .
8.70

Identify measured pIC50 obtained with CK1ϵ (Homo sapiens, UniProt P49674) for Cc1nc(-c2ccncc2)sc1C(=O)Nc1cn2nc(-c3c(-c4ccc(F)cc4)nn4c3CNCC4)ccc2n1 .
8.62
